Species on record: Rattus norvegicus
Test: DrugMatrix - Regimen: Daily Repeat
Type: toxicity, organism-based, Sprague-Dawley
Parameters: regimen Daily Repeat, gender Male, age 6-8 weeks
Conditions: in vivo, po, 0 mg/kg, 120 h, tissue Plasma, route oral GAVAGE, dose level Control, time 5 day, vehicle .5 % CMC
Field: CREATININE. Provide a value for each of the compounds that follow.
Answers are plain numbers, in mg/dL.

Sample records with CREATININE:
- compound: "CCOC(=O)[C@H](CCc1ccccc1)N[C@@H](C)C(=O)N1Cc2ccccc2C[C@H]1C(=O)O"
  CREATININE (mg/dL): 0.19
- compound: "CC(C(=O)O)c1ccc(-c2ccccc2)c(F)c1 (configuration not stated)"
  CREATININE (mg/dL): 0.37
- compound: "C[C@@H](O)[C@H]1C(=O)N2C(C(=O)O)=C(S[C@@H]3CN[C@H](C(=O)N(C)C)C3)[C@H](C)[C@H]12"
  CREATININE (mg/dL): 0.37

Please report CREATININE for every entry that follows.
1. Cc1cnc(C(=O)NCCc2ccc(S(=O)(=O)NC(=O)NC3CCCCC3)cc2)cn1 [GLIPIZIDE]
2. CC(C)(Sc1cc(C(C)(C)C)c(O)c(C(C)(C)C)c1)Sc1cc(C(C)(C)C)c(O)c(C(C)(C)C)c1
3. CCCCC1C(=O)N(c2ccccc2)N(c2ccccc2)C1=O
4. Nc1cccc(Cl)c1
5. COc1ccc(/C=C/C(=O)Nc2ccccc2C(=O)O)cc1OC
6. CN1C(=O)CN=C(c2ccccc2)c2cc(Cl)ccc21
7. CC(=O)O[C@]1(C(C)=O)CC[C@H]2[C@@H]3C=C(Cl)C4=CC(=O)[C@@H]5C[C@@H]5[C@]4(C)[C@H]3CC[C@@]21C [CYPROTERONE ACETATE]
8. COc1ccccc1OCC(O)COC(N)=O (configuration not stated)

Output line:
0.19
0.37
0.21
0.23
0.37
0.22
0.19
0.18

Input line: Given the compound C[C@@H]1CC[C@H]2[C@@H](C)C(=O)O[C@@H]3O[C@@]4(C)CC[C@@H]1[C@]32OO4 , write its reported CREATININE.
Output line: 0.18

Where these numbers come from: ChEMBL document CHEMBL3885881
